- Tested on: MS2 coat protein
- Procedure summary: apparent KD of MS2 coat protein; higher = weaker reporter binding
- Details: Eterna round: R107; input ligand: none
Answer 0 if apparent KD of MS2 coat protein is under 0.03 µM, and 1 if it is 0.03 µM or more.

Answered cases to consult:
[
  {
    "Sequence string": "UUCGUUUGCGGAAGGAGCGACGGACAUCGGUGAACAACGCACAUGAGGAUCACCCAUGUACGUCAGGUAGGUCGCCGCUAAGAGU [XArg-B3]",
    "Class assignment": 1
  },
  {
    "Sequence string": "GCACAAGAUGGAAGGAGCGCUGGUAAAGGUCACAUGAGGAUCACCCAUGUGCUCCUUGCCGAGCAGGUAGGUCGCCAUCUUGUGC [SSAB NP+V+V2 #3]",
    "Class assignment": 0
  },
  {
    "Sequence string": "UGUAAUGUGGGAAGGAGCGCAUACUUCACAUGAGGAUCACCCAUGUCAAGACGUGAGUCAGUGCAGGUAGGUCGCCUAGUUUAGA [Same State - Arginine B (Freestyle 18)]",
    "Class assignment": 1
  }
]

input: In plain terms: is recorded apparent KD of MS2 coat protein at least 0.03 µM for CUAUCCUUGCCGGAUGAAGGACACUGAGAAGGAGCGCGGUAAUCCGCAGGUAGGUCGCUCAGGAGUACAUGAGGAUCACCCAUGU [Xeonrave] ?
output: 0

input: In plain terms: is recorded apparent KD of MS2 coat protein at least 0.03 µM for UUUUUUAUUGGGUAUAGAAUAUUAACUGAAGGAGCGUGGUAUUACACAGGUAGGUCGCAGUUUUUACAUGAGGAUCACCCAUGUU [JR_SSArginiA_Sub010] ?
output: 1

input: In plain terms: is recorded apparent KD of MS2 coat protein at least 0.03 µM for AGUAGUUGACAAAAGUCAGCUACAAUUGAAGGAGCGGGAUCCUUCCCAGGUAGGUCGCAAUAACAUGAGGAUCACCCAUGUCAAA [ArgAS 4 #BothOrNeither #OpenEnded] ?
output: 0

input: In plain terms: is recorded apparent KD of MS2 coat protein at least 0.03 µM for GUAUAUAUGCGAAGGAGCGGGAAAUAUAUAUAUAUAAUCCUAACAUGAGGAUCACCCAUGUCCCAGGUAGGUCGCGCAUAUAUAU [12.B] ?
output: 1

input: In plain terms: is recorded apparent KD of MS2 coat protein at least 0.03 µM for AAAAUCCUACCUGAGGAUCACCCAGGUGAAGGAGCGCCCGAAAGGGCAGGUAGGUCGCACCUGAGGAUCACCCUGGUAAACCUAA [ArgEX 22 #DoubleMS2 #OpenEnded] ?
output: 1

input: In plain terms: is recorded apparent KD of MS2 coat protein at least 0.03 µM for GGGAGGUAGGCGGCCGCCACUGAUUUUCAUAUAUAUAUAACAUGAGGAUCACCCAUGUAGAUAUACAGGACCGGGCCUAUUUUUU [aaaF] ?
output: 0

input: In plain terms: is recorded apparent KD of MS2 coat protein at least 0.03 µM for UGACAGAUAACCGCUGGUGCUCUUGAGUUGCGAGGACCGGUACGGCCGCCACUCGACAACAUGAGGAUCACCCAUGUUGCGGGUC [Soleeror] ?
output: 1

input: In plain terms: is recorded apparent KD of MS2 coat protein at least 0.03 µM for AUAACAUGAGGAUCACCCAUGUAAGCAGAUACCAGCUAGGAAACUAGCCCUUGGCAGCUGCAAUCAUGGGUGUUUGCAGCUGCAA [(M1)-(M2)-(T1)-(T2)-(M)'-(T)'_Design2] ?
output: 0

input: In plain terms: is recorded apparent KD of MS2 coat protein at least 0.03 µM for `UGUAUGGACUGAAGGAGCGGGUUGAUAAUCUGAGGAUCACCCAGGUAAAAGGCGAAAGCCGCCCAGGUAGGUCGCAGUCCAUACU` ?
output: 0
